Target: Single-strand selective monofunctional uracil DNA glycosylase (Homo sapiens);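 further: enzymatic SMUG1 assay coupled with APE1, reading fluorescence at 594 nm released when a quenched double-stranded DNA oligonucleotide substrate is cleaved and separated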
Settings: Compound Concentration 10.0 uM, Hit No
Description: Inhibition of SMUG1 by quantifying inhibition of SMUG1-mediated cleavage and dissociation of quenched duplex DNA oligonucleotides, measured as fluorescence at 594 nm. To generate a functional strand incision and increase turn-over this assay is coupled to APE1.
Each record here notes measured inhibition.

compound | endpoint.unit | inhibition
O=C(O)c1cc(F)c2nc(N3[C@@H]4CC[C@H]3C[C@@H](OCc3c(-c5ccccc5OC(F)(F)F)noc3C3CC3)C4)sc2c1 | % | 17.7
Cc1nn(C)c2nc(NNC(=O)Nc3cc(Cl)nc(Cl)c3)cc(C(C)C)c12 | % | 4.42
CCCOc1ccc2[nH]cc(C3=CCNCC3)c2n1 | % | -1.82
NCCc1c[nH]c2ccc(O)cc12 | % | -6.38
O=C(O)Cn1c(C(=O)Nc2nc(-c3ccccc3Cl)cs2)cc2ccccc21 | % | 5.06
CCC[C@H]1CNCc2c1[nH]c(=O)c(C#N)c2N1CCC2(CC1)CC2 | % | 6.33
CC(C)(C)C1CCc2c(sc(NC(=O)c3ccco3)c2C(=O)O)C1 (stereo not given) | % | -0.636
COC(=O)C1=C(C)NC(C)=C(C(=O)OC(C)C)C1c1cccc2nonc12 (stereo not given) | % | 0.608
O=C(c1ccc2c(ccn2-c2ccc(F)cc2)c1)N1CC(N2CCN(C(=O)c3nccs3)CC2)C1 | % | 21.1
CC(=O)Nc1nc(C)c(S(=O)(=O)Nc2ccc(C(O)(C(F)(F)F)C(F)(F)F)cc2)s1 | % | 23

----------
Each record here notes measured inhibition.
Molecular target: Uracil-DNA glycosylase (Homo sapiens);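 further: UNG excision on a quenched double-stranded DNA oligo probe, with APE1 added for strand incision and turnover, read as fluorescence at 594 nm as strands separate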
Details: Compound Concentration 10.0 uM, Hit No
Description: Inhibition of UNG by quantifying inhibition of UNG-mediated cleavage and dissociation of quenched duplex DNA oligonucleotides, measured as fluorescence at 594 nm. To generate a functional strand incision and increase turn-over this assay is coupled to APE1.

test.smiles | target.or.test.system | inhibition (%)
COc1cccc(CNC(=O)c2nc3scc(CN(C)Cc4ccccc4)c3c(=O)[nH]2)c1 | Uracil-DNA glycosylase (Homo sapiens) | 2.11
C[C@@H](O[C@H]1OCCN(Cc2n[nH]c(=O)[nH]2)[C@H]1c1ccc(F)cc1)c1cc(C(F)(F)F)cc(C(F)(F)F)c1 | Uracil-DNA glycosylase (Homo sapiens) | -3.75
CC(C)(O)c1cnc(N2C[C@@]3(CCC[C@](C)(Cn4cnc5ccc(C#N)cc54)C3)OC2=O)cn1 | Uracil-DNA glycosylase (Homo sapiens) | -2.44
CCOC(=O)c1ccc(C#Cc2ccc3c(c2)C(C)(C)CCS3)nc1 | Uracil-DNA glycosylase (Homo sapiens) | -5.12
O=C(O)c1cc(-c2ccc(C3CCNCC3)cc2)c2ccc(-c3ccc(C(F)(F)F)cc3)cc2c1 | Uracil-DNA glycosylase (Homo sapiens) | 0.968

----------
Target: Endonuclease 8-like 1 (Homo sapiens);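 further: fluorescence at 594 nm from quenched duplex DNA oligonucleotides released by NEIL1 cleavage and strand separation, reported as reduction of this enzyme activity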
Settings: Compound Concentration 10.0 uM, Hit No
Description: Inhibition of NEIL1 by quantifying inhibition of NEIL1-mediated cleavage and dissociation of quenched duplex DNA oligonucleotides, measured as fluorescence at 594 nm.

molecule | target.or.test.system | inhibition, %
CCc1cccc(CC)c1NC(=O)c1nn(C)c2c1CCc1cnc(Nc3ccc(C(=O)NC4CCN(C)CC4)cc3OC(F)(F)F)nc1-2 | Endonuclease 8-like 1 (Homo sapiens) | 2.12
N[C@@H](CCP(=O)(O)O)C(=O)O | Endonuclease 8-like 1 (Homo sapiens) | 7.42
C[C@@H](NCCc1ccc(O)cc1)[C@@H](O)c1ccc(O)cc1 (relative stereo) | Endonuclease 8-like 1 (Homo sapiens) | -5.25
COc1cccc(Cn2cc(C(=O)Nc3ccc(C)c(S(=O)(=O)N4CCOCC4)c3)c(-c3ccc(C)cc3)n2)c1 | Endonuclease 8-like 1 (Homo sapiens) | -9.23
CN(c1ncccc1CNc1ccnc(-c2cc3cc(Cl)ccc3[nH]2)n1)S(C)(=O)=O | Endonuclease 8-like 1 (Homo sapiens) | 8.2
C=CC(=O)Nc1ccc2[nH]c(=O)n(C3CCN(Cc4ccc(-c5ccc6c(c5)NC(=O)CO6)cc4)CC3)c2c1 | Endonuclease 8-like 1 (Homo sapiens) | 2.54
N[C@@H](Cc1cc(I)c(Oc2ccc(O)c(I)c2)c(I)c1)C(=O)O | Endonuclease 8-like 1 (Homo sapiens) | -7.26
COCCOCCn1nc2c(c1C)-c1c(Cl)ccc3c1c(C)c(C(=O)O)n3CCCOc1cc(cc3c(F)c(Cl)ccc13)CCc1cc(nn1C)CSC2 | Endonuclease 8-like 1 (Homo sapiens) | -6.35
CC(C)C[C@H](NC(=O)c1cc2ccccc2s1)C(=O)N1CCN(C(=O)[C@H](CO)NS(=O)(=O)c2ccc(Cl)cc2Cl)CC1 | Endonuclease 8-like 1 (Homo sapiens) | 7.86
Cc1cccc(-c2cnc3occ(-c4ccc(C(=O)O)c(C5CCCC5)c4)c3c2)c1 | Endonuclease 8-like 1 (Homo sapiens) | 6.08
O=c1ccn([C@@H]2O[C@H](COP(=O)(O)OP(=O)(O)OP(=O)(O)OP(=O)(O)OC[C@H]3O[C@@H](n4ccc(=O)[nH]c4=O)[C@H](O)[C@@H]3O)[C@@H](O)[C@H]2O)c(=O)[nH]1 | Endonuclease 8-like 1 (Homo sapiens) | 3.21
C[C@H](NC(=O)[C@H](Cc1ccccc1)NC(=O)[C@H](CCC(N)=O)NC(=O)CNC(=O)[C@@H]1CCCN1C(=O)[C@H](Cc1ccccc1)NC(=O)[C@@H](N)Cc1ccc(O)cc1)C(=O)N[C@@H](Cc1ccccc1)C(=O)N[C@@H](CO)C(=O)O | Endonuclease 8-like 1 (Homo sapiens) | 13.2
CC(C1CC2CCC1C2)n1c(S)nnc1-c1ccco1 (stereo unspecified) | Endonuclease 8-like 1 (Homo sapiens) | 1.64
c1nc(CC2CCNCC2)c[nH]1 | Endonuclease 8-like 1 (Homo sapiens) | 7.21
CN(C)C(=O)N1CC[C@H](NC2=Nc3cc(F)ccc3N(CC(F)F)c3ccc(Cl)cc32)C1 | Endonuclease 8-like 1 (Homo sapiens) | -0.787
CC(C)c1c(CN(C)C(C)Cc2ccccc2)n(C)n(-c2ccccc2)c1=O (stereo unspecified) | Endonuclease 8-like 1 (Homo sapiens) | 0.921

FYI, the data here is from ChEMBL document CHEMBL5665443.
